Test system: A549
Experiment: Antiproliferative activity against human A549 cells assessed as reduction in cell viability
Assay type: functional, cell-based
recorded_metric: IC50 (nM)
The answer is to be given in nM; state only the numeric part.

query: What value of measured IC50 is listed for "COc1ccc(-c2csc(Nc3ccc(OC)cc3OC)n2)cc1" ?
result: 860

====

Test system: HepG2
Assay: Cytotoxicity against human HepG2 cells assessed as reduction in cell viability at 200 uM incubated for 24 hrs by MTT assay
Assay type: functional, cell-based
Details: HepG2, 24 h
recorded_metric: pIC50
// scale note: pIC50 = -log10(conc_M); give the bare number

query: What value of measured pIC50 is listed for "c1ccc2cc(-c3csc(N4CCCC4)n3)ccc2c1" ?
result: 5.30

====

System: HCT-116
Test: Cytotoxicity against human HCT-116 cells assessed as reduction in cell viability by MTT assay
Assay type: functional, cell-based
recorded_metric: IC50 (µM)
The answer is to be given in µM; state only the numeric part.

| smiles_input | target_or_system | unit_annotation | IC50 |
| --- | --- | --- | --- |
| Nc1ccccc1C(=O)Nn1c(-c2ccc(Cl)cc2)cs/c1=N/c1ccc([N+](=O)[O-])cc1 | HCT-116 | µM | 5.37 |

Let us examine a further case.
query: What value of measured IC50 is listed for "O=C(Nn1c(-c2ccc(Br)cc2)cs/c1=N\c1ccc([N+](=O)[O-])cc1)c1ccc(Cl)cc1" ?
result: 5.37

====

Test system: HeLa
Assay: Cytotoxicity against human HeLa cells assessed as reduction in cell viability measured after 48 hrs by MTS assay
Format: functional, cell-based
Recorded IC50, one value per entry.

| smiles_input | reported_value |
| --- | --- |
| Clc1cccc(Nc2c3ccccc3nc3sc(NCCN4CCCCC4)nc23)c1 | 5.69 µM |

query: What value of measured IC50 is listed for "Cc1cccc(N(c2cccc(Cl)c2)c2c3ccccc3nc3scnc23)c1" ?
result: 5.69 µM

====

Recorded pIC50, one value per entry.
System: MKN-74
Assay: Cytotoxicity against human MKN-74 cells
Type: functional, cell-based
// scale note: pIC50 = -log10(conc_M); give the bare number

Before answering, review these 4 worked examples.
| molecule | pIC50 |
| --- | --- |
| C/C=C1\NC(=O)[C@H]([C@@H](C)O)NC(=O)c2csc(n2)-c2ccc(-c3nc(-c4nc(C(=O)N/C(=C/C)C(=O)NC[C@H](C)O)cs4)cs3)nc2-c2csc(n2)[C@H]([C@@H](C)O)NC(=O)c2csc(n2)[C@H](C(C)C)NC(=O)c2csc1n2 | 5.14 |
| C=C(NC(=O)C(=C)NC(=O)c1csc(C2=N[C@@H]3c4csc(n4)[C@H]4NC(=O)c5csc(n5)[C@H]([C@](C)(O)[C@@H](C)O)NC(=O)[C@H]5CSC(=N5)/C(=C/C)NC(=O)[C@H]([C@@H](C)O)NC(=O)c5csc(n5)[C@]3(CC2)NC(=O)[C@H](C)NC(=O)C(=C)NC(=O)[C@H](C)NC(=O)[C@H]([C@@H](C)CC)N[C@@H]2C=Cc3c([C@H](C)O)cc(nc3[C@H]2O)C(=O)O[C@@H]4C)n1)C(N)=O | 5.38 |
| C/C=C1\NC(=O)[C@H]([C@@H](C)O)NC(=O)c2csc(n2)-c2ccc(-c3nc(-c4nc(C(=O)N/C(=C/C)C(=O)NC[C@@H](C)O)cs4)cs3)nc2-c2csc(n2)[C@H]([C@@H](C)O)NC(=O)c2csc(n2)[C@H](C(C)(C)O)NC(=O)c2csc1n2 | 4.96 |
| C=C(NC(=O)C(=C)NC(=O)c1csc(C2=N[C@@H]3c4csc(n4)[C@H]4NC(=O)c5csc(n5)C([C@](C)(O)[C@@H](C)O)NC(=O)[C@H]5CSC(=N5)/C(=C/C)NC(=O)C([C@@H](C)O)NC(=O)c5csc(n5)[C@]3(CC2)NC(=O)[C@H](C)NC(=O)C(=C)NC(=O)C(=C)NC(=O)[C@H](C(C)C)N[C@H]2C=Cc3c([C@H](C)O)cc(nc3[C@H]2O)C(=O)O[C@@H]4C)n1)C(N)=O (stereo not given in full) | 5.21 |

query: What value of measured pIC50 is listed for "C=C(NC(=O)C(=C)NC(=O)c1ccc2c(n1)-c1coc(n1)C(=O)NC(=O)CNC(=O)c1coc(n1)C(=C)NC(=O)[C@H](C(C)(C)O)NC(=O)C(=O)NC(=O)c1nc(oc1C)/C(=C\C)NC[C@H](C(C)C)NC(=O)c1csc-2n1)C(N)=O" ?
result: 5.61

====

Test system: A549
Test: Anticancer activity against human A549 cells
Assay type: functional, cell-based
recorded_metric: IC50 (µM)
The answer is to be given in µM; state only the numeric part.

| compound | unit_annotation | IC50 |
| --- | --- | --- |
| O=C(NNc1nc(-c2ccc(Cl)cc2)cs1)N1N=C(c2ccccc2)CC1c1ccccc1 (configuration not stated) | µM | 5 |

Let us examine a further case.
query: What value of measured IC50 is listed for O=C(NNc1nc(-c2ccc3ccccc3c2)cs1)N1N=C(c2ccccc2)CC1c1ccc(Cl)cc1 (configuration not stated) ?
result: 5

====

Tested on: A549
Assay: Cytotoxicity against human A549 cells assessed as inhibition of cell growth by MTT assay
Assay type: functional, cell-based
recorded_metric: pIC50
// scale note: pIC50 = -log10(conc_M); give the bare number

query: What value of measured pIC50 is listed for "COC(=O)Nc1nc2cc(C(=O)c3cccs3)ccc2[nH]1" ?
result: 5.74

====

Recorded IC50, one value per entry.
System: MG-63
Experiment: Cytotoxicity against human MG-63 cells
Format: functional, cell-based
The answer is to be given in µM; state only the numeric part.

| smiles_input | recorded_metric | reported_value |
| --- | --- | --- |
| CC(=O)Nc1nc2ccc(NS(=O)(=O)c3ccc(C4CCCCC4)cc3)cc2s1 | IC50 | 34 |

query: What value of measured IC50 is listed for "CC(=O)Nc1nc2ccc(NC(=O)Cc3c[nH]c4ccccc34)cc2s1" ?
result: 48

====

Tested on: Hep 3B2
Assay: Cytotoxicity against human Hep3B cells
Assay type: functional, cell-based
Recorded IC50, one value per entry.
The answer is to be given in nM; state only the numeric part.

Before answering, review these 4 worked examples.
| compound | unit_annotation | IC50 |
| --- | --- | --- |
| C=C(NC(=O)C(=C)NC(=O)c1csc(C2=N[C@@H]3c4csc(n4)[C@H]4NC(=O)c5csc(n5)[C@H]([C@](C)(O)[C@@H](C)O)NC(=O)[C@H]5CSC(=N5)/C(=C/C)NC(=O)[C@H]([C@@H](C)O)NC(=O)c5csc(n5)[C@]3(CC2)NC(=O)[C@H](C)NC(=O)C(=C)NC(=O)[C@H](C)NC(=O)[C@H]([C@@H](C)CC)N[C@@H]2C=Cc3c([C@H](C)O)cc(nc3[C@H]2O)C(=O)O[C@@H]4C)n1)C(N)=O | nM | 820 |
| C/C=C1\NC(=O)[C@H]([C@@H](C)O)NC(=O)c2csc(n2)-c2ccc(-c3nc(-c4nc(C(=O)N/C(=C/C)C(=O)NC[C@H](C)O)cs4)cs3)nc2-c2csc(n2)[C@H]([C@@H](C)O)NC(=O)c2csc(n2)[C@H](C(C)C)NC(=O)c2csc1n2 | nM | 940 |
| C=C(NC(=O)C(=C)NC(=O)c1ccc2c(n1)-c1coc(n1)C(=O)NC(=O)CNC(=O)c1coc(n1)C(=C)NC(=O)[C@H](C(C)(C)O)NC(=O)C(=O)NC(=O)c1nc(oc1C)/C(=C\C)NC[C@H](C(C)C)NC(=O)c1csc-2n1)C(N)=O | nM | 1040 |
| C/C=C1\NC(=O)[C@H]([C@@H](C)O)NC(=O)c2csc(n2)-c2ccc(-c3nc(-c4nc(C(=O)N/C(=C/C)C(=O)NC[C@@H](C)O)cs4)cs3)nc2-c2csc(n2)[C@H]([C@@H](C)O)NC(=O)c2csc(n2)[C@H](C(C)(C)O)NC(=O)c2csc1n2 | nM | 2340 |

query: What value of measured IC50 is listed for C=C(NC(=O)C(=C)NC(=O)c1csc(C2=N[C@@H]3c4csc(n4)[C@H]4NC(=O)c5csc(n5)C([C@](C)(O)[C@@H](C)O)NC(=O)[C@H]5CSC(=N5)/C(=C/C)NC(=O)C([C@@H](C)O)NC(=O)c5csc(n5)[C@]3(CC2)NC(=O)[C@H](C)NC(=O)C(=C)NC(=O)C(=C)NC(=O)[C@H](C(C)C)N[C@H]2C=Cc3c([C@H](C)O)cc(nc3[C@H]2O)C(=O)O[C@@H]4C)n1)C(N)=O (stereo not given in full) ?
result: 1900

====

Recorded pIC50, one value per entry.
Molecular target: Epidermal growth factor receptor (Homo sapiens)
Sequence (P00533 whole entry): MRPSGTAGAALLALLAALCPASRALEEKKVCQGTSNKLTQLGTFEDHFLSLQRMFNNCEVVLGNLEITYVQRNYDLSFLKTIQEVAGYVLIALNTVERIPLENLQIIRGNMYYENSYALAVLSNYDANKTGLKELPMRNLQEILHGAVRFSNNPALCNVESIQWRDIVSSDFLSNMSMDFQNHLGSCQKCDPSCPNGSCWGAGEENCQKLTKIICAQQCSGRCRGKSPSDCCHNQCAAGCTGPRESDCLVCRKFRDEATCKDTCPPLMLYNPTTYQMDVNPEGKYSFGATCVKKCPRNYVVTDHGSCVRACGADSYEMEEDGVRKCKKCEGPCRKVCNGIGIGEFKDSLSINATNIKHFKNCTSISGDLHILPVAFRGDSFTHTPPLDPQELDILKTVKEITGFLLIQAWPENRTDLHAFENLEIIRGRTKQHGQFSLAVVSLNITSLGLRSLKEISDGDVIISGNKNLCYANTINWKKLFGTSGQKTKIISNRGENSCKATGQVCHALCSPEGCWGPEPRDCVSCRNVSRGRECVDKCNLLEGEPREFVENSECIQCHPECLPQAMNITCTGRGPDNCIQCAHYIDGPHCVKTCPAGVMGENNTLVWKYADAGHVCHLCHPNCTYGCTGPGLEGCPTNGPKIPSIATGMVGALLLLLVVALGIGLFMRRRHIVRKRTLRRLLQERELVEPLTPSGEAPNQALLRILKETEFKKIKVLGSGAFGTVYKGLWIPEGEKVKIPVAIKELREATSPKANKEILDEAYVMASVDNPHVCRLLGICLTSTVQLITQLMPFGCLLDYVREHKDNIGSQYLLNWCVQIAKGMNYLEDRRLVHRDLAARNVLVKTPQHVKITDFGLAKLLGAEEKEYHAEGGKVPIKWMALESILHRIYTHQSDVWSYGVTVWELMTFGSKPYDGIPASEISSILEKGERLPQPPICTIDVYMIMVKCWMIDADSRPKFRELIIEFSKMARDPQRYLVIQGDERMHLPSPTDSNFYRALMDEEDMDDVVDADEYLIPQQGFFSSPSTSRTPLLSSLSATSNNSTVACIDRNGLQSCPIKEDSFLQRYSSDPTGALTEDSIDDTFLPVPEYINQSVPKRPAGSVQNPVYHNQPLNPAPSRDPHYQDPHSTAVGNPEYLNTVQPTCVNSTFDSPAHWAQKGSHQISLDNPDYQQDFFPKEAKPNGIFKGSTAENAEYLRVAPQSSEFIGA
// scale note: pIC50 = -log10(conc_M); give the bare number

| smiles_input | pIC50 |
| --- | --- |
| CC(C)=NNc1nc(-c2ccc(Cl)cc2)cs1 | 5.70 |

Let us examine a further case.
query: What value of measured pIC50 is listed for "COc1cc(C(=NC#N)c2csc(-c3ccccc3)n2)cc(OC)c1OC" ?
result: 7.70
